Target: cdPadR1 (Clostridium difficile R20291, UniProt A0A9R0CDW8 1-109)
Experiment: EMSA; 20 mM Tris pH 8.0, 120 mM KCl, 10 mM MgCl2, 5 mM DTT, 12.5% glycerol, 125 ug/mL heparin, room temperature
Conditions: protein: recombinant; tags: N-terminal Strep II; chain copies: 2
Assay Readout: binding result

Which binding result value is on record for Pr112 (dsDNA) DNA 1: ATATTTTAGTTATATTTTTGATAGAAAATATTTTATCGTGTATAATACTACTTATAAATAAGAATAAAAATAAAGAGCTTGTTTGGAGGAATTTTAATAA DNA 2: TTATTAAAATTCCTCCAAACAAGCTCTTTATTTTTATTCTTATTTATAAGTAGTATTATACACGATAAAATATTTTCTATCAAAAATATAACTAAAATAT ? binds

Which binding result value is on record for Pr32 (dsDNA) DNA 1: TGTATTATAGAGTACTATGTATTATTATAGTAAATATAAGTACTATACATTATAGAGTAGTAGG DNA 2: CCTACTACTCTATAATGTATAGTACTTATATTTACTATAATAATACATAGTACTCTATAATACA ? binds

Which binding result value is on record for Pr27 (PcdpadR1) (dsDNA) DNA 1: TAAACCTTGTATTATAGAGTACTATGTATTATTATAGTAAATATAAGTACTATACATTATAGAGTAGTAGGTGAAAAGGCGGTGGTACATAATGCAGTTA DNA 2: TAACTGCATTATGTACCACCGCCTTTTCACCTACTACTCTATAATGTATAGTACTTATATTTACTATAATAATACATAGTACTCTATAATACAAGGTTTA ? binds
